Test: Solubility measurement (HPLC)
Format: physicochemical
Conditions: pH 10.0 buffer solution (20 mM), aqueous buffer, thermodynamic from solid; pH 10.0 buffer (20 mM), 25° C.; read-out: Solubility at pH 10.0
solubility at 30 min: recorded values
Provide only the numeric value, understood in µg/mL.

- MOLECULE: "C[C@H]1Oc2cc(cnc2NC(=O)CN)-c2c(nn(C)c2C#N)CN(C)C(=O)c2ccc(F)cc21"
  MEASURED QUANTITY: "solubility at 30 min"
  READOUT UNITS: "µg/mL"
  NUMERIC RESULT: 36

Proceeding to the next molecule to report its solubility at 30 min.
Returns the measured solubility at 30 min for the input molecule. Input: C[C@H]1Oc2cc(cnc2N)-c2c(nn(C)c2C#N)CN(C)C(=O)c2ccc(F)cc21 [Compound A, reference compound]
28

Every entry's value here was drawn from patent US10159663B2.
